Assay comment: fission yeast growth modulation, primary screen, strain 972, OD600, 24 h, no modulator (AID 1090);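 also: basal condition with compound alone and no growth modifier present; test concentration not given here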
Setup conditions: S. pombe 972 growth, higher = more signal, called active from +8 up or from −8 down
Record satisfied whenever z-score is at 0.2 or higher; record not satisfied when lower.

Reported z-score reaches at least 0.2 for CCN(CC)c1ccc(N2CC=CC34O[C@@H]5C=CCCOC(=O)C5[C@H]3C(=O)N(CCCCCO)[C@@H]4C2=O)cc1 (stereo not given in full) ? not satisfied

Proceed to COC(=O)c1ccc(C(O)C2C=CC3C(=O)N(c4ccccc4)C(=O)C3N2Nc2ccc(C#N)cc2)o1 (stereo not given) satisfied

Proceed to CCCCC(O)C1C=CC2C(=O)N(C3CCCCC3)C(=O)C2N1Nc1ccc(OC)cc1 (stereo not given) satisfied

Proceed to [N-]=[N+]=NCc1ccccc1[C@@H]1OC(c2ccc(OCCCO)cc2)=N[C@]1(Cc1ccccc1N=[N+]=[N-])C(=O)NCc1ccccc1 satisfied

Proceed to COc1ccccc1CN1C(=O)c2ccccc2[C@@H](C(=O)NCCN2CCOCC2)[C@@H]1c1ccc(CO)cc1 not satisfied

Proceed to Cc1ccc(S[C@]2(C(=O)NCc3ccccc3)CC(=O)N(Cc3ccccc3)[C@@H]2c2ccc(CO)cc2)cc1 not satisfied

Proceed to O=C1N(CCS(=O)(=O)c2ccccc2)c2ccccc2C[C@@]12COC(c1ccc(OCCCO)cc1)=N2 not satisfied

Proceed to COc1ccc(CCNC(=O)[C@@H]2c3ccccc3C(=O)N(Cc3ccc(OC(F)(F)F)cc3)[C@H]2c2ccc(CO)cc2)cc1 not satisfied

Proceed to CC(C)(C)OC(=O)CC[C@@]1(C(=O)NCCN2CCOCC2)N=C(c2ccc(OCCCO)cc2)O[C@@H]1c1ccccc1 not satisfied

Proceed to CCCCC=C[C@@H](NC(=O)c1ccc(C(=O)OC)cc1)c1ccccc1 not satisfied

Proceed to CCC(CC)C(O)C1C=CC2C(=O)N(c3ccccc3)C(=O)C2N1Nc1ccc(C#N)cc1 (stereo not given) satisfied

Proceed to O=C1OCC=C[C@H]2OC34C=CCN(c5ccc6ccccc6c5)C(=O)[C@H]3N(CCCO)C(=O)[C@@H]4[C@@H]12 (stereo not given in full) not satisfied

Proceed to COCCOC(=O)N1C(=O)[C@@]2(c3cc(C#CCNC(N)=O)ccc31)[C@H](C(=O)N1CCc3cc(OC)c(OC)cc3C1)[C@H]1C(=O)O[C@H](c3ccccc3)[C@H](c3ccccc3)N1[C@@H]2c1ccc(OCCO)cc1 satisfied

Proceed to Cc1cc(C)c(C(O)C2C=CC3C(=O)N(C)C(=O)C3N2Nc2ccccc2)c(C)c1 (stereo not given) satisfied

* * *

Study system: Alpha-bungarotoxin (Bungarus multicinctus)
Assay comment: alpha-bungarotoxin binders on microarray, profiling panel, artefact control for SMM control protein annotation, biochemical, small-molecule microarray, Alexa647 label, 635/667 nm fluorescence (AID 1117)
Setup conditions: alpha-BTX-A647 binding fluorescence, higher = more signal
Binning of composite z-score into classes: lo = under 0.4, mid = from 0.4 up to 0.9, hi = 0.9 and over

GET /class?item= COCCOC(=O)N1C(=O)[C@@]2(c3cc(C#CCCO)ccc31)[C@H](C(=O)NC[C@H](O)c1ccccc1)[C@H]1C(=O)O[C@H](c3ccccc3)[C@H](c3ccccc3)N1[C@@H]2c1ccc(O)cc1 mid

Proceed to CC(C)=CCCC(C)=CC(O)C1C=CC2C(=O)N(c3ccccc3)C(=O)C2N1Nc1ccccc1 (centres undefined) hi

Proceed to C=CCOC(=O)[C@H]1[C@@H]2C(=O)O[C@@H](c3ccccc3)[C@@H](c3ccccc3)N2[C@@H](c2ccc(OCCOC(=O)[C@@H]3C[C@@H]4C(=O)N5CCC[C@H]5C(=O)N4[C@@H]3c3ccc(O)cc3)cc2)[C@]12C(=O)Nc1ccccc12 hi

Proceed to CC(C)NC(=O)[C@@H]1c2ccccc2C(=O)N(Cc2ccccc2)[C@H]1c1ccc(CO)cc1 lo

Proceed to NC(=O)NCC#Cc1ccc2c(c1)[C@]1(C(=O)N2)[C@H](C(=O)NC[C@H](O)c2ccccc2)[C@H]2C(=O)O[C@H](c3ccccc3)[C@H](c3ccccc3)N2[C@@H]1c1ccc(O)cc1 hi

Proceed to COc1ccc(CCNC(=O)[C@@H]2c3ccccc3C(=O)N(Cc3ccc(OC(F)(F)F)cc3)[C@H]2c2ccc(CO)cc2)cc1 lo

Proceed to COc1ccc(C#Cc2ccc3c(c2)[C@]2(C(=O)N3)[C@H](c3ccc(O)cc3)N3[C@H](c4ccccc4)[C@H](c4ccccc4)OC(=O)[C@H]3[C@@H]2C(=O)NC[C@H](O)c2ccccc2)cc1 hi

Proceed to CCCCCCc1nc(CCCc2cc3c(c(CCCCCC)n2)[Si](C(C)C)(C(C)C)OC3)cc2c1[Si](C(C)C)(C(C)C)OC2 lo

Proceed to CN1C(=O)C2C=CC(C(O)c3ccccn3)N(Nc3ccccc3)C2C1=O (centres undefined) mid

Proceed to CCOC(=O)C[C@H]1[C@H](OC(=O)c2ccc(-c3ccccc3)cc2)[C@@H](NC(=O)c2ccc(-c3ccccc3)cc2)c2cc(OCCCO)ccc2N1C(=O)Cc1ccc(OC)cc1 lo

Proceed to O=C(NCc1ccccc1)[C@]1(CCS(=O)(=O)c2ccccc2)N=C(c2ccc(OCCCO)cc2)O[C@@H]1c1ccccc1 mid
